# experimental.target: T1, biotinylated recombinant cynomolgus monkey trimeric ARG2 enzyme (Avi-cynoARG2-His10) (cynomolgus monkey, UniProt P78540 23-354 (human entry), biotinylated)
# T1 construct: also called cynomolgus ARG2
# T1 chain: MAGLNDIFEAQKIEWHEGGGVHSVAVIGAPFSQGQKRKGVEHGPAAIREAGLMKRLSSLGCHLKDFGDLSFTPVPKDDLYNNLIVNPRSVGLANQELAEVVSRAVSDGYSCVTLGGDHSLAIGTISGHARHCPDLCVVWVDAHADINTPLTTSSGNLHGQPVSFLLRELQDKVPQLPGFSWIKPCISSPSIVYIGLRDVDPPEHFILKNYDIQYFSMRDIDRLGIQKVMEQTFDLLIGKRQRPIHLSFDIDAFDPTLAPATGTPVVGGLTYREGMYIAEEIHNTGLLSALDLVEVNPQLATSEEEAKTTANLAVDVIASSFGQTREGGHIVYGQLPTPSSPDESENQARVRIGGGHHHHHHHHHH
# protocol.description: BLI (OctetRED) extended assay, biotinylated cyno ARG2 on streptavidin, Fab as analyte, 1:1 fit
pKd: −log10 of the molar value.

binder: C0021180 Fab (Fab, V domains shown, Human Fab) VH: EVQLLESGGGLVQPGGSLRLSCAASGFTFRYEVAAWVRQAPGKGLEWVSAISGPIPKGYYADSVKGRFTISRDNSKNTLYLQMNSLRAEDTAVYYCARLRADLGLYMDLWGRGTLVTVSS VL: QSVLTQPPTVSAAPGRKVTISCSGSSSNIGDHHVSWYQQLPGAAPKLLIYDTDHMASGIPDRFSGSRSGTSATLGITGLQTGDEADYYCGTWDSSLSALVFGGGTKLTVL
pKd: 9.45
//
binder: C0021181 Fab (Fab, V domains shown, Human Fab) VH: EVQLLESGGGLVRPGGSLRLSCAASEFTFRYDYHVWVRQAPGKGLEWVSAISGSGGSTYYADSVKSRFTISRDNSKNTLYLQMNSLRAEDTAVYYCARLRADLGLYMDLWGRGTLVTVSS VL: QSVLTQPPSVSAAPGQKVAVSCSGSSSNIGSHYVSWYQQLPGTAPKLLIYDNSERTSGIPDRFSGSKSGTSATLGITGLQTGDEADYYCGTWDELTSNLVFGGGTRLTVL
pKd: 9.76
//
binder: C0021158 Fab (Fab, V domains shown, Human Fab) VH: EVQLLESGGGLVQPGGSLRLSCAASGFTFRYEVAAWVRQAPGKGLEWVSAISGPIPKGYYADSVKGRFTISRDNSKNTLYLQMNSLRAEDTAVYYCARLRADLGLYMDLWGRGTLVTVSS VL: QSVLTQPPSVSAAPGQKVTISCSGSSSNIGNHYVSWYQQLPGTAPKLLIYDNSERTAGVPDRFSGSKSGTSATLGITGLQTGDEADYYCGTWDELTSNLVFGGGTKLTVL
pKd: 9.97
//
binder: C0021177 Fab (Fab, V domains shown, Human Fab) VH: EVQLLESGGGLVQPGGSLRLSCAASGFTFRYEVAAWVRQAPGKGLEWVSAISGPAPKGYYADSVKGRFTISRDNSKNTLYLQMNSLRAEDTAVYYCARLRADLGLYMDLWGRGTLVTVSS VL: QSELTQPPTASAAPGQKVTISCSGSSSNIGNHYVSWYQQLPGTAPKLLIYDTTVLSSGIPDRFSGSKSGTSATLGITGLQTGDEADYYCGTWDELTSNLVFGGGTKLTVL
pKd: 10.12

Where these numbers come from: patent US20220403048A1
